Consider the following compounds and their measured pIC50 readings.
- Study target: Beta Secretase enzyme (BACE) (Homo sapiens (Human), UniProt P56817)
- Sequence (P56817 46-501): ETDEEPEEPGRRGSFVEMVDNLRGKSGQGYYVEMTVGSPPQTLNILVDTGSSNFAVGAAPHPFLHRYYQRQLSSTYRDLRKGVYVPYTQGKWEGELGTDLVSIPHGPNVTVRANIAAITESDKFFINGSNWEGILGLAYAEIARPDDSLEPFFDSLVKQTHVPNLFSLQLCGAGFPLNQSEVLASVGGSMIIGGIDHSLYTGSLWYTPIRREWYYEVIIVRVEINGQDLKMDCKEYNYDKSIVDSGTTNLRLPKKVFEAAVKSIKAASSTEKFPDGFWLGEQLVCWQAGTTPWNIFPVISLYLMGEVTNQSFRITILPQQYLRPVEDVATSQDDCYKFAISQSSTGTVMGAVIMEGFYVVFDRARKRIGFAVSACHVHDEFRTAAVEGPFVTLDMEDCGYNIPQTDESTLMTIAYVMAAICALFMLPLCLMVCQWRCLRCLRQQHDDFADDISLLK
- Test method notes: In vitro enzymatic BACE FRET assay
- Assay type: biochemical
- Condition label: average; read-out: BACE 1 FRET assay IC50
pIC50 is defined as minus the log10 of a concentration measured in mol/L.

Consider the following illustrative entries.
{"Chemical structure": "Cc1cc(OC(F)F)cnc1C(=O)Nc1cc(C)c(F)c([C@]2(CF)C[C@@H](C(F)(F)F)OC(N)=N2)c1", "pIC50": 7.49}
{"Chemical structure": "Cc1cc(NC(=O)c2ccc(C#N)cn2)cc([C@]2(CF)C[C@@H](C(F)(F)F)OC(N)=N2)c1F", "pIC50": 7.24}
{"Chemical structure": "C#CCOc1cnc(C(=O)Nc2cc(F)c(F)c([C@]3(C)C[C@@H](C(F)(F)F)OC(N)=N3)c2)cn1", "pIC50": 8.70}
{"Chemical structure": "C[C@@]1(c2cc(NC(=O)c3ncc(C(F)(F)F)cc3Cl)cc(F)c2F)C[C@@H](C(F)(F)F)OC(N)=N1", "pIC50": 7.12}

Prompt: Identify the measured pIC50 of "COc1cccnc1Nc1cc(F)c(F)c([C@]2(C)C[C@@H](C(F)(F)F)OC(N)=N2)c1" for Beta Secretase enzyme (BACE) (Homo sapiens (Human), UniProt P56817).
Completion: 6.75

Prompt: Identify the measured pIC50 of "COCc1cc(Cl)cnc1C(=O)Nc1cc(F)c(F)c([C@]2(C)C[C@@H](C(F)(F)F)OC(N)=N2)c1" for Beta Secretase enzyme (BACE) (Homo sapiens (Human), UniProt P56817).
Completion: 7.80

Prompt: Identify the measured pIC50 of "C[C@@]1(c2cc(NC(=O)c3nn(C(F)F)cc3Cl)cc(F)c2F)C[C@@H](C(F)(F)F)OC(N)=N1" for Beta Secretase enzyme (BACE) (Homo sapiens (Human), UniProt P56817).
Completion: 7.96
